- Target or test system: human CB2 receptor (Homo sapiens)
- Sequence (P34972 whole entry): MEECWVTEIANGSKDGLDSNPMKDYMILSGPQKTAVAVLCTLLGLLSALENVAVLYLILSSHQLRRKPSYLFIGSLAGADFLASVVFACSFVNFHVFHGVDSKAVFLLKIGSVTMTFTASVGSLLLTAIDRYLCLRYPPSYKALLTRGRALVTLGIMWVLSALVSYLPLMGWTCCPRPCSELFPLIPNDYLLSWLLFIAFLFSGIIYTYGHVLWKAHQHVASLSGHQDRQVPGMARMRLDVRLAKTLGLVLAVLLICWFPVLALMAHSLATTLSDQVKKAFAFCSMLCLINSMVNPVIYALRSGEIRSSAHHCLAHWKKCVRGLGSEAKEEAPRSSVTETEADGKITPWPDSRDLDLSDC
- Assay remarks: 35S-GTPγS binding, CHO cells expressing human CB2 receptor
- Conditions: CHO cells with human CB2; read-out: EC50 for stimulating 35S-GTPγS binding (CB2)
pEC50: −log10 of the molar value.
Measurement type: pEC50

INSERT INTO measurements (compound, reported_value) VALUES
  ('CCCCCCC(C)(C)c1cc(OC)c(C2(O)CCCC(C)C2)c(OC)c1 (stereo not shown) [O-1966]', 7.15);
